target: human MRGPRX2 (Homo sapiens); experiment: MRGPRX2 Activity: IP-One HTRF antagonist assay in CHO cells stably expressing human MRGPRX2, versus Cortistatin-14; conditions: versus 0.3 uM Cortistatin-14 agonist, IP-1 HTRF, read-out: MRGPR2 Antagonist Activity
Sequence (Q96LB1 whole entry): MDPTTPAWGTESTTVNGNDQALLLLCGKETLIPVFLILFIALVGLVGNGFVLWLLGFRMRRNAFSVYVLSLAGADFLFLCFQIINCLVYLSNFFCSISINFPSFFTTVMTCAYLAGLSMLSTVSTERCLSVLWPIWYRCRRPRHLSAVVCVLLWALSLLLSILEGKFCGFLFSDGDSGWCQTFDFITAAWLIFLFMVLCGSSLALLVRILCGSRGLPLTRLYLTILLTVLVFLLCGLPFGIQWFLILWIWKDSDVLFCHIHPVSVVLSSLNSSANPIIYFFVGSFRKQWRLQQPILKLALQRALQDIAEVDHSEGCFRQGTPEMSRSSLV
pIC50: −log10 of the molar value.
assay_readout: pIC50

Some solved cases for reference:
structure_smiles_string	pIC50
O=C(N[C@H]1CC[C@@H](Nc2cccc3nc(C(F)F)cn23)CC1)c1ccc(C(F)F)cc1	7.00 to 7.29
CCn1nccc1C(=O)N[C@H]1CC[C@@H](Nc2cccc3sc(C(F)(F)F)cc23)CC1	6.30 to 7.00
N#Cc1cccc(C(=O)N[C@H]2CC[C@@H](Nc3cccc4sc(C(F)(F)F)cc34)CC2)c1	6.30 to 7.00
CN(CC(F)F)c1cccc(C(=O)N[C@H]2CC[C@@H](Nc3cccc4nc(C(F)(F)F)cn34)CC2)c1	7.00 to 7.29
Cn1cc(C(=O)N[C@H]2CC[C@@H](Nc3cccc4nc(C(F)F)cn34)CC2)c(NCC(F)F)n1	> 7.30

State the recorded pIC50 for this entry: Cc1cc2c(C(=O)N[C@H]3CC[C@@H](Nc4cccc5nc(C(F)(F)F)cn45)CC3)cccc2n1C
> 7.30

State the recorded pIC50 for this entry: O=C(N[C@H]1CC[C@@H](Nc2cccc3nc(C(F)(F)F)cn23)CC1)c1ccn2ccnc2c1
7.00 to 7.29

State the recorded pIC50 for this entry: Cc1c(C(=O)N[C@H]2CC[C@@H](Nc3cccc4nc(C(F)(F)F)cn34)CC2)c2ccccc2n1C
6.30 to 7.00

State the recorded pIC50 for this entry: O=C(N[C@H]1CC[C@@H](Nc2cccc3sc(C(F)F)cc23)CC1)c1ccc(F)cc1
7.00 to 7.29

State the recorded pIC50 for this entry: O=C(N[C@H]1CC[C@@H](Nc2cccc3nc(C(F)(F)F)cn23)CC1)c1cn(CC(F)(F)F)nc1Cl
> 7.30

State the recorded pIC50 for this entry: O=C(N[C@H]1CC[C@@H](Nc2cccc3nc(C(F)(F)F)cn23)CC1)c1ccc(-n2cnnn2)cc1
> 7.30

State the recorded pIC50 for this entry: O=C(N[C@H]1CC[C@@H](Nc2cccc3nc(C(F)(F)F)sc23)CC1)c1ccc(F)cc1
7.00 to 7.29

State the recorded pIC50 for this entry: O=C(N[C@H]1CC[C@@H](Nc2cccc3nc(C(F)(F)F)cn23)CC1)c1ccc(NCC(F)(F)F)cc1
> 7.30

State the recorded pIC50 for this entry: O=C(N[C@H]1CC[C@@H](Nc2cccc3nc(C(F)(F)F)cn23)CC1)c1ccc(NCC(F)F)cc1
> 7.30

State the recorded pIC50 for this entry: CNc1ccc(C(=O)N[C@H]2CC[C@@H](Nc3cccc4nc(C(F)F)cn34)CC2)cc1
> 7.30

State the recorded pIC50 for this entry: CCn1ncc(C(=O)N[C@H]2CC[C@@H](Nc3cccc4nc(C(F)(F)F)cn34)CC2)c1Cl
6.30 to 7.00

State the recorded pIC50 for this entry: CC(C)(F)Cn1cc(C(=O)N[C@H]2CC[C@@H](Nc3cccc4nc(C(F)F)cn34)CC2)c(Cl)n1
> 7.30

State the recorded pIC50 for this entry: O=C(N[C@H]1CC[C@@H](Nc2cccc3nc(C(F)F)cn23)CC1)c1ccc(OCCF)cc1
> 7.30

State the recorded pIC50 for this entry: Cc1n[nH]cc1C(=O)N[C@H]1CC[C@@H](Nc2cccc3nc(C(F)(F)F)cn23)CC1
> 7.30
